# method-description: Acute toxicity, oral, mice
# Design: species or system SlC:ddy male mice
# condition-set: mouse, in vivo; 800 mg/kg oral, 4 hr; read-out: Number of dead mice per 10 mice
I'd be grateful if you could share measured mortality at 4 h for these entries.
One number for each entry, in %.

INSERT INTO assay_data (compound, metric, measurement) VALUES
  ('CC(C)CC(N(C)C)C1(c2ccc(Cl)cc2)CCC1.Cl (centres unmarked) [Test compound, hydrochloride]', 'mortality at 4 h', 60);

Proceed to the following item.
mortality at 4 h lookup needed for "CNCCCN1c2ccccc2CCc2ccccc21" , thanks.
100

----------
Would you mind telling me the reported IC50 of each entry?
# Test system: re-uptake of ^3 H-dopamine
# method-description: Re-uptake of 3H-dopamine in vitro (synaptosomes, P2 fraction of whole brain)
# Format: biochemical, Std: Wistar strain male rat
# condition-set: Experiment I, rat brain synaptosomes, 37° C., 20 minutes
Give bare numbers, in µM.

INSERT INTO results (compound, metric, unit_string, measurement) VALUES
  ('CN(C)CCC=C1c2ccccc2CCc2ccccc21', 'IC50', 'µM', 7.7);

# ---- query compound ----
Would you kindly share the measured IC50 for CC(C)CC(N(C)C)C1(c2ccc(Cl)cc2)CCC1.Cl (centres unmarked) [Test compound, hydrochloride] ?
2

----------
# method-description: Acute toxicity, oral, mice
# Parameters: species or system SlC:ddy male mice
# condition-set: mouse, in vivo; 200 mg/kg oral, 18 hr; read-out: Number of dead mice per 10 mice
metric: mortality at 18 h (%)
One number for each entry, in %.

INSERT INTO assay_data (compound, measurement) VALUES
  ('CNCCCN1c2ccccc2CCc2ccccc21', 0);

Please examine the following record next.
So what does the record say about mortality at 18 h for CC(C)CC(N(C)C)C1(c2ccc(Cl)cc2)CCC1.Cl (centres unmarked) [Test compound, hydrochloride] ?
20

----------
# method-description: Acute toxicity, oral, mice
# Set-up: species or system SlC:ddy male mice
# condition-set: mouse, in vivo; 200 mg/kg oral, 1 hr; read-out: Number of dead mice per 10 mice
metric: mortality at 1 h (%)
Answers are plain numbers, in %.

INSERT INTO measurements (molecule, measurement) VALUES
  ('CC(C)CC(N(C)C)C1(c2ccc(Cl)cc2)CCC1.Cl (centres unmarked) [Test compound, hydrochloride]', 10);

Please report the recorded mortality at 1 h for "CNCCCN1c2ccccc2CCc2ccccc21" .
0

----------
# method-description: Acute toxicity, oral, mice
# Parameters: species or system SlC:ddy male mice
# condition-set: mouse, in vivo; 200 mg/kg oral, 24 hr; read-out: Number of dead mice per 10 mice
# Experimental: SlC:ddy male mice (10 heads/group) were used. After the oral administration of the test smaple, desipramine was used as the test drug, to the mice, the number of the dead mice was counted at 0.5, 1, 2, 4, 18 and 24 hours respectively after the oral administration.
metric: mortality at 24 h (%)
Give bare numbers, in %.

INSERT INTO assay_data (molecule, metric, measurement) VALUES
  ('CNCCCN1c2ccccc2CCc2ccccc21 [Desipramine, desipramine]', 'mortality at 24 h', 0);

Which mortality at 24 h reading was recorded for the molecule CC(C)CC(N(C)C)C1(c2ccc(Cl)cc2)CCC1.Cl (centres unmarked) [Test compound, hydrochloride] ?
20
